B1: ZNF449 (parent)
chain: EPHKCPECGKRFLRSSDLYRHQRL

Variants of: B1
assay.comment: protein stability index of a GFP-peptide fusion (GPS, HEK-293T) (PSI 1-6); higher = more stable;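 further: lentivirally expressed fusions sorted by FACS into six bins by GFP to DsRed ratio, PSI derived from sequencing read proportions per bin multiplied by bin number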
condition.parameters: c terminus: a fixed tail appended
reported.metric: protein stability index
# respond with the number and nothing more

Answered examples (6):
mutation.list	reported.metric	experimental.value
Q22T	protein stability index	3.3
L18C	protein stability index	3.68
S16M	protein stability index	3.4
R20G	protein stability index	3.21
K4V	protein stability index	4.7
H3C	protein stability index	3.58

Using known records, supply protein stability index for `H3E` 2.99

Using known records, supply protein stability index for `D17L` 2.81

Using known records, supply protein stability index for `R23G` 3.54

Using known records, supply protein stability index for `L18M` 3.46

Using known records, supply protein stability index for `H3V` 3.72

Using known records, supply protein stability index for `R11M` 4.26
